- Test system: YANK1
- Construct: gene STK32A
- measurement_conditions: concentration: 1 μM, replicates: in singlicate; n = 1;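 further: KINOMEscan kinase panel screen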
Using %Inh as the sorting value, the categories are range 1 = under 7%, range 2 = from 7% up to 20%, range 3 = 20% and over

Request: Classify this molecule: Cl.N#CCc1ccc(Nc2nccc(Nc3ccc(Oc4ccccc4)cc3)n2)cc1 [GW639905]
Result: range 1

Request: Which %Inh band matches Cc1cccc(Nc2nc(N[C@H]3CCCC[C@H]3N)ncc2C(N)=O)c1.Cl [GSK986310] ?
Result: range 3

Request: Tag the class for COC(=O)Nc1nc2ccc(Oc3ccc(NC(=O)Nc4cc(C(F)(F)F)ccc4F)cc3)cc2[nH]1.Cl [GW654607]
Result: range 3

Request: Which category fits this record: Cc1ccc(NC(=O)c2cccc(N3CCCCC3)c2)cc1-c1ccc(C(=O)NCC2CC2)cc1 [GSK1917008]
Result: range 2

Request: Record Fc1cc(Cl)ccc1Nc1ccnc2cc(-c3ccc(CN4CCOCC4)o3)ccc12 [GW560109] — which class?
Result: range 2

Request: Which class is correct for the following molecule? CCOc1nccc(-c2c(-c3ccc(F)cc3)ncn2C2CCNCC2)n1 [SB-249175]
Result: range 3

Request: Quick check: band for O=C1NC(=O)C(c2ccccc2Cl)=C1Nc1cccc(Cl)c1 [SB-342409]
Result: range 1

Request: Class for O=C(Nc1n[nH]c2cc(-c3cccs3)ccc12)C1CC1 [SB-731284] ?
Result: range 2

====

- Tested on: ARK5
- Construct: gene NUAK1
- measurement_conditions: concentration: 1 μM, replicates: in singlicate; n = 1
Consider the following molecules; for each one, report its %Inh.
Give the quantity in %, number only.

Please fill in: %Inh reported for "c1ccc(Oc2ccc(Nc3ccnc4cc(-c5ccc(CN6CCCCC6)o5)ccc34)cc2)nc1" = 12

%Inh reading for "O=C(O)C(F)(F)F.O=c1[nH]ccc2nc(N[C@@H]3CCNC3)nc(Nc3cc(Cl)cc(Cl)c3)c12" : 99.5

Looking up "Cn1cc(-c2ccc3c(c2)CCN3C(=O)Cc2cc(F)cc(F)c2F)c2c(N)ncnc21" , I found its %Inh recorded as 20

Quick note, %Inh for "CC(C)(C)c1ccc(C(=O)Nc2cn3cc(-n4ccnc4)ccc3n2)cc1" landed at 2

Recorded result, "Cc1cc(-c2c(-c3ccc(F)cc3)ncn2CCCN2CCOCC2)nc(N)n1" , %Inh: 0

For reference, reported %Inh for "COc1ccc(NC(=O)c2ccoc2)cc1-c1ccc(C(=O)NCC2CC2)cc1" stands at 0

Entry under test: "Cc1ccc(Nc2ccnc(Nc3ccc(C)c(F)c3)n2)cc1O.Cl" . Its %Inh was 40

Lab note: "CCNC(=O)/C=C/c1n[nH]c2cc(Sc3ccccc3C(=O)NC)ccc12" gave %Inh of 10

The molecule listed as "CN(c1ccc2c(c1)nc(NCc1ccccc1)n2C)c1ccnc(Nc2ccc(CS(C)(=O)=O)cc2)n1.Cl" shows %Inh equal to 0

What the record says about "Cc1ccc(O)cc1Nc1ccnc2ccc(C(C)(C)C)cc12" : %Inh is 0

Lab note: "COc1cccc2c(-c3ccncc3)c(-c3ccc(F)cc3)nn12" gave %Inh of 19

Entry "Fc1cc(Cl)ccc1Nc1ccnc2cc(-c3ccc(CN4CCSCC4)o3)ccc12" ; %Inh = 13

Reported %Inh of "CSc1ccc(NC2=C(c3ccc(Cl)cc3)C(=O)NC2=O)cc1" : 0

// "O=C(O)C(F)(F)F.O=c1[nH]ccc2nc(N[C@@H]3CCNC3)nc(Nc3ccc4c(c3)S(=O)(=O)CC4)c12" : %Inh value = 99.9

%Inh reported for this molecule "CN(c1ccc(F)c(NC(=O)c2cccc(OC(C)(C)C#N)c2Cl)c1)c1ccc2nc(NC(=O)C3CC3)sc2n1" : 0

The value of %Inh measured for the molecule "CNc1nccc(-c2ccc3c(N)n[nH]c3c2)n1" turned out to be 0

In plain terms, "Cc1ccc(O)cc1Nc1ccnc2cc(-c3ccc(CN4CCCCC4)o3)ccc12" has a documented %Inh of 0

So for "CN(c1ccc(NC(=O)N2CCN(CCCN3CCOCC3)CC2)cc1)c1ccnc(Nc2ccc(CS(C)(=O)=O)cc2)n1.Cl" , the logged %Inh turned out to be 0
